Each record here notes measured IC50.
Target: caspase-3 (Homo sapiens, UniProt P42574)
Sequence (P42574 29-175 limits assumed, species assumed): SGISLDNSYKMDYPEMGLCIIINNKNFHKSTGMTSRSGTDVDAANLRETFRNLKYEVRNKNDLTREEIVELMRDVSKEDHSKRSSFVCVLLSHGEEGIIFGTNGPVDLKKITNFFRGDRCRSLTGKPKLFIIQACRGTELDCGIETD
Sequence (P42574 176-277 limits assumed, species assumed): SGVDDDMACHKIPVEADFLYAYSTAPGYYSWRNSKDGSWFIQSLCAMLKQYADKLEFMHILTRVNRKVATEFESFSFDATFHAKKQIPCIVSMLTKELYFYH
Assay: IC50 assay with recombinant caspase-3
Conditions: mean±s.d.

CN(C)c1ccc(N2C(=O)C=CC2=O)cc1 [compound 22]    > 100 µM
COc1ccc(N2CCN(C(c3ccc(N(C)C)cc3)c3nnnn3C(C)(C)C)CC2)cc1 (stereo not drawn) [compound 31]    > 100 µM

Then there is this compound:
Entry Cc1cccc(NCc2ccc(O)c3ncccc23)c1C [compound 12] has what IC50?
> 200 µM
